Taken from patent US11932634B2.

Field: IC50. Provide a value for each of the compounds that follow.
- TARGET SYSTEM: human DGKα (Homo sapiens, UniProt P23743)
- Construct: inferred from the same paragraph's 'obtained from Carna Biosciences')
- Sequence (P23743 whole entry): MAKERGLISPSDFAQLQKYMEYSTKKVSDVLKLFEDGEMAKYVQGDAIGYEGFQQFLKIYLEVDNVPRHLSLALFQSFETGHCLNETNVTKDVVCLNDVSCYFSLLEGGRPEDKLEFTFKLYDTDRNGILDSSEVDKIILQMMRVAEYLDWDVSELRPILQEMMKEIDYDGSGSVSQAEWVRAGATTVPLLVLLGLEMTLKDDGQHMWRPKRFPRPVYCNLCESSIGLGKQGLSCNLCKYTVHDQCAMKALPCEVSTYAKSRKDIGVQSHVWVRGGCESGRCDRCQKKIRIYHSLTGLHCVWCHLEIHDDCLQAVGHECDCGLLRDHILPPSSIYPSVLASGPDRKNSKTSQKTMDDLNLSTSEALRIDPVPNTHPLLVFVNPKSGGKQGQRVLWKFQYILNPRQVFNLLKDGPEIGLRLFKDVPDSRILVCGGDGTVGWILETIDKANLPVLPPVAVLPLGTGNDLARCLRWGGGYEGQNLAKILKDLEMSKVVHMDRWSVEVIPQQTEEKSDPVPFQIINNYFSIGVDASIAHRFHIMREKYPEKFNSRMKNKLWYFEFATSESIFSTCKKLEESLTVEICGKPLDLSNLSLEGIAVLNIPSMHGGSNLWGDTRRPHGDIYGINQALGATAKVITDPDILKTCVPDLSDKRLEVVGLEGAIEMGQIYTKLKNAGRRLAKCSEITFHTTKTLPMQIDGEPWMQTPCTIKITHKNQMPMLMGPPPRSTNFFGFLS
- RUN DESCRIPTION: DGKα Biochemical Activity Assay (ADP-Glo);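 note: recombinant enzyme converting diacylglycerol in lipid micelles with ATP, ADP formed detected by luminescence, IC50 from a four-parameter nonlinear fit, geometric mean across experiments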
Numbers only, in nM.

The examples below pair each entry with its known result.
{"COMPOUND": "CN(c1cccc(-c2cnc(C3CC3)cn2)c1)c1nc(=O)n(C)c2cc(Cl)ccc12 [Example 11]", "UNIT STRING": "nM", "IC50": 4.02}
{"COMPOUND": "COC(C)(C)C#Cc1cccc2c1CCCN2c1nc(=O)[nH]c2cccc(F)c12 [Example 52]", "UNIT STRING": "nM", "IC50": 12.9}
{"COMPOUND": "CC(C)(O)C#Cc1cccc2c1CCCN2c1nc(=O)[nH]c2cccc(Cl)c12 [Example 127]", "UNIT STRING": "nM", "IC50": 8.66}
{"COMPOUND": "[2H]C([2H])([2H])n1c(=O)nc(N(CC(F)(F)F)c2cccc(C#CC3(C(F)(F)F)CC3)c2)c2ccc(Cl)cc21 [Example 25]", "UNIT STRING": "nM", "IC50": 58.8}
{"COMPOUND": "O=c1nc(N2CCCc3c(Br)cncc32)c2c(F)cccc2[nH]1 [Example 70]", "UNIT STRING": "nM", "IC50": 170}
{"COMPOUND": "[2H]C([2H])([2H])n1c(=O)nc(N2CCOCc3c(C#CC45CC(CN4C)C5)cccc32)c2c(F)cccc21 [Example 174]", "UNIT STRING": "nM", "IC50": 66.4}

For each of the items listed, what is its IC50?
1. CC(C)(C#Cc1cccc(N(CC(F)F)c2nc(=O)[nH]c3ccc(F)cc23)c1F)C(F)(F)F [Example 49]
2. CN(c1cccc(C#CC2(C(F)(F)F)CC2)c1)c1nc(=O)n(C)c2cc(Cl)ccc12 [Example 8]

-- reply
1: 296; 2: 12.4
